// reported recombinant UMI read abundance (log10) per item
- test-protocol: recombinant UMI read abundance after kanamycin selection (control-corrected) (log10(CPM+1)); higher = more efficient recombination; extreme values may be limits of the assay; sequences stand for … in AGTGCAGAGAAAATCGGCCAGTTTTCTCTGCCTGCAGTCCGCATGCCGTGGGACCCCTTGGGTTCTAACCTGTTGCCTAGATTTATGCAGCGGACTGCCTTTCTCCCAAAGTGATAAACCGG…AGGTTGGTTTCACT; site = the 11-nt donor;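 note: IS621 bridge recombinase in Escherichia coli cells against a fixed T5 target plasmid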
I'd appreciate a reply containing only the number, no unit.

As a guide, the following entries are already answered.
primary-sequence	recombinant UMI read abundance (log10)
GCAGGTACATGGACCGGTTTTCCCGGTAATCCGTATTTGAC (site GAAGGTACTGT)	0.00935
TCGCCGGCATGGACCGGTTTTCCCGGTAATCCGTATTTGGC (site TGGCCGGCTGC)	0
TTTGCGACATGGACCGGTTTTCCCGGTAATCCGTATTTGCT (site TTTGCGGCTAG)	0.145
GGCAATTCATGGACCGGTTTTCCCGGTAATCCGTATTTGAA (site GGCAATACTTT)	0.0193
CACCGCCCATGGACCGGTTTTCCCGGTAATCCGTATTTGTT (site CACTGCCCTAA)	0.0163

Request the reported recombinant UMI read abundance (log10) associated with GTTGGAGCATGGACCGGTTTTCCCGGTAATCCGTATTTGCA (site GTTGGAGCTTG)
2.49

Please do the same for CTGCTACCATGGACCGGTTTTCCCGGTAATCCGTATTTGCC (site CTGCTACCTTG) as well.
0

Same for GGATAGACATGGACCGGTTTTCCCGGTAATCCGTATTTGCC (site GTATAGACTGG)
1.89

Item: TCGTTCACATGGACCGGTTTTCCCGGTAATCCGTATTTGGA (site TCGTTCACTTC)
0.0102

Same again, this time with GGAATGGCATGGACCGGTTTTCCCGGTAATCCGTATTTGGT (site GGAGTGGCTAC)
0.00394

// repeat for CTAACTTCATGGACCGGTTTTCCCGGTAATCCGTATTTGCA (site CTAACTTCTTG) and report
2.08

Would you kindly repeat that for TCATACTCATGGACCGGTTTTCCCGGTAATCCGTATTTGCC (site TCATACTCTGG) ?
2.23

Entry to check: CATGTGTCATGGACCGGTTTTCCCGGTAATCCGTATTTGAC (site GATGTGTCTGT)
0

Continue with TCGCCGGCATGGACCGGTTTTCCCGGTAATCCGTATTTGGC (site TAGCCGGCTGC)
0

How about ATCGAAGCATGGACCGGTTTTCCCGGTAATCCGTATTTGAG (site ATCAAAGCTCT) ?
2.12

Can you handle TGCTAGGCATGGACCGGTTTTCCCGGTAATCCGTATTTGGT (site AGCTAGGCTAC) next?
0.0183

For CAAGCACCATGGACCGGTTTTCCCGGTAATCCGTATTTGCT (site CAAGCACCTAG) then?
0.47

Could you do the same for CGAGAGTCATGGACCGGTTTTCCCGGTAATCCGTATTTGCC (site CGAGAGTCTGG) , please?
3.37

* * *

- test-protocol: recombinant UMI read abundance after kanamycin selection (control-corrected) (log10(CPM+1)); higher = more efficient recombination; extreme values may be limits of the assay; sequences stand for … in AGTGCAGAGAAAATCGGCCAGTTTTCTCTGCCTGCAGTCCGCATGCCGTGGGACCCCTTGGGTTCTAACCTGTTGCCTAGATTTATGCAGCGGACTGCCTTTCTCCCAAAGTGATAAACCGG…AGGTTGGTTTCACT; site = the 11-nt donor
Overview of reported recombinant UMI read abundance (log10) across a group of sequences:
// return just the number, without any unit appended

primary-sequence	recombinant UMI read abundance (log10)
AGGATGACATGGACCGGTTTTCCCGGTAATCCGTATTTGTA (site AGGATGACTTA)	2.6
CCCTTGGCATGGACCGGTTTTCCCGGTAATCCGTATTTGGA (site CCCTTGGCTTC)	0.107
CCCGGGCCATGGACCGGTTTTCCCGGTAATCCGTATTTGCA (site CCCGGTCCTTG)	0
ACGCTATCATGGACCGGTTTTCCCGGTAATCCGTATTTGCA (site ACGCTATCTTG)	2.75
GCCTCGCCATGGACCGGTTTTCCCGGTAATCCGTATTTGTA (site GCCTCGCCTTA)	0.0151
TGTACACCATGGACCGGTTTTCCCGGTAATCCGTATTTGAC (site TGTACACCTGG)	0

Sample GGCAGTCCATGGACCGGTTTTCCCGGTAATCCGTATTTGAA (site GGCAATCCTTT) — what was its recombinant UMI read abundance (log10)?
0.00812

Consider next the sequence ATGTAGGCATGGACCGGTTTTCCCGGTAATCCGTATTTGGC (site ATGTAAGCTGC) in the same way.
2.28

Next record, please: CCTAAAGCATGGACCGGTTTTCCCGGTAATCCGTATTTGAA (site CCTAAAGCTGT)
0

Likewise for AGTCCTTCATGGACCGGTTTTCCCGGTAATCCGTATTTGCA (site AGTCCTTCTTG) ?
1.24

Note, next up: CGATCTACATGGACCGGTTTTCCCGGTAATCCGTATTTGTT (site CGATCAACTAA)
0.012

Continue with CGGTCATCATGGACCGGTTTTCCCGGTAATCCGTATTTGCA (site CGATCATCTAG)
0.01

Now the sequence GGCATTCCATGGACCGGTTTTCCCGGTAATCCGTATTTGAA (site GGCATTCCTTT)
0.29

Sourced from the supplement of paper PMC11208160
